system: MS2 coat protein; test: apparent KD of MS2 coat protein; designed switch direction (-1 OFF switch, 1 ON switch): -1; higher = weaker reporter binding; settings: Eterna round: R95; input ligand: FMN 200 uM
assay.endpoint: apparent KD of MS2 coat protein (µM)
Record the value in µM, omitting the unit from your answer.

Recorded apparent KD of MS2 coat protein, per entry:
{"columns": ["construct.sequence", "assay.endpoint", "numeric.value"],
 "data": [
  ["AAUGGGUGUGUGAGGAUAUACGAAGGCAAUUGCCAGUAGAAGGUACAUGAGGAUCACCCAUGUGUCCAAAAGAG [Tititemaon] (puzzle: Brourd's mod of Exclusion 4)", "apparent KD of MS2 coat protein", 0.0128],
  ["AGAGGACAUGAGGAUCACCCAUGUAAGGAUAUGCGGAGAGUUUGGAGAGGUCGGGUAGGCAGAAGGUACAGGAG [JR_Exclu1_Sub050] (puzzle: Exclusion 1)", "apparent KD of MS2 coat protein", 0.0822],
  ["AAGUAUAGAGGAUAUAGUGAGUACUACAUGAGGAUCACCCAUGUUCUUCAAAGCGUAUUUCUAGAAGGCUGUUAAA [EX-5 Malc#18] (puzzle: Exclusion 5)", "apparent KD of MS2 coat protein", 0.123],
  ["GGCCGAGAACAGCUCCACGCUACCCUCGGCCGCUCAUUUACAUGAGGAUCACCCAUGUUUUUUGCUUGUCUUGUUUC [Xeisrarabi] (puzzle: Sensor v3, turn-off variant 2)", "apparent KD of MS2 coat protein", 0.0221],
  ["GGUUGACAUGAGGAUCACCCAUGUGAGGAUAUGCGAGAGAAAAAAGUGAGGAAGGUUUGCAGAAGGCGCUGUCG [salish99-ex1_r3_008] (puzzle: Exclusion 1)", "apparent KD of MS2 coat protein", 0.0502],
  ["UAAUAGCAAGCAAGAUCCCACAUGAGGAUCACCCAUGUGCUCGUCUUAUAAGGUACUGUGACGAAAGUCACGGUACC [Sensor 3, v1 - 98] (puzzle: Sensor v3, turn-off variant 1)", "apparent KD of MS2 coat protein", 0.0455],
  ["AGUACUAACACCGUUGUGUUAGUACAAUAAGCUUGUGAAACAUGAGGAUCACCCAUGUCCUCAUAAGCUCGUCUUAU [salish99_TOv2_r3_071] (puzzle: Sensor v3, turn-off variant 2)", "apparent KD of MS2 coat protein", 0.0163],
  ["AGAUGUAGAUACCGGUCCUACAUGAGGAUCACCCAUGUAGCUUGACGUGCGGGCGGCGCUCGUCGGUCUACCAGUAG [salish99_TOv1_r3_100] (puzzle: Sensor v3, turn-off variant 1)", "apparent KD of MS2 coat protein", 0.0273],
  ["GAUGAGGUAGGAUAUACGAGAAGAUAGGGUAGAUAUAUAACACAUGAGGAUCACCCAUGUAGAAGGACCAGUAG [Mat - Exclusion 2 - Mod of my Tesla design - D71] (puzzle: Exclusion 2)", "apparent KD of MS2 coat protein", 0.0651]
]}

query: So what does the record say about apparent KD of MS2 coat protein for CCAGGCGUCUUUGCUCGUCUUAUUUGGAGAGGACUGAUAACAUGAGGAUCACCCAUGUGUGUGGGAGCGUUGCAGUG [JR_SV3TOV2_Sub020] (puzzle: Sensor v3, turn-off variant 2) ?
result: 0.0863
